Let's look at some compounds and their measured IC50.
# Subject Of Test: USP7 (Homo sapiens)
# Construct: USP7, construct USP7 (208-1102) 6*His, Viva Biotech; 6xHis (C); purchased Viva Biotech
# Sequence (Q93009 208-1102): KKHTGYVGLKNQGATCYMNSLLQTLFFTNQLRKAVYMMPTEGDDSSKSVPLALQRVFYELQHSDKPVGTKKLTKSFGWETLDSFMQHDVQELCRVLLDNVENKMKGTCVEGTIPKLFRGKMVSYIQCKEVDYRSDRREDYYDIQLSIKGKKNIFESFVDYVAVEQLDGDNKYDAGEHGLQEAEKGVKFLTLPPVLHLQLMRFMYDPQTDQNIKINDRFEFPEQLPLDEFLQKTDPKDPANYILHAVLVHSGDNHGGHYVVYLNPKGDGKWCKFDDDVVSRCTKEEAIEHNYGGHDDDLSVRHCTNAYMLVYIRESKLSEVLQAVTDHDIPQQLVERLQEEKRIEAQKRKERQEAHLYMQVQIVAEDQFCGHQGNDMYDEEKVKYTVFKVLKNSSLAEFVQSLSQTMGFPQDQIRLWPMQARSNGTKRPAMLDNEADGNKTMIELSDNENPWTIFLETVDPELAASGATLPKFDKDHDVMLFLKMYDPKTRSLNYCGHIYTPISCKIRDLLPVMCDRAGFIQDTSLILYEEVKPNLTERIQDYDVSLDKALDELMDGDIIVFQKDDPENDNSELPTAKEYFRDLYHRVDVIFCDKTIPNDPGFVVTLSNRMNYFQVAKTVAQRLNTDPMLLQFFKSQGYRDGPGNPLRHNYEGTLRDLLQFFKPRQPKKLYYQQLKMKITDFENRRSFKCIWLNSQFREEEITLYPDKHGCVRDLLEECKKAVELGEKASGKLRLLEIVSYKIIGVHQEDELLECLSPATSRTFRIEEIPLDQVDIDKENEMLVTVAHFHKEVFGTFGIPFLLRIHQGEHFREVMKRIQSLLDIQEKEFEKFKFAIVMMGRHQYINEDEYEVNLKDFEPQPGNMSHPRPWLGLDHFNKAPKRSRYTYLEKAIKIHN
# Procedure Details: USP7 Assay A (Ubitquin-Rhodamine 110 Assay)
# Type: biochemical
# Measurement Context: USP7 activity in USP7 assay A and B (table does not say which assay per compound); read-out: USP7_IC50

Compound	IC50
Cc1ncc(-c2ccc(C(=O)N3CCC(O)(Cn4cnc5c(cnn5-c5ccc(Cl)cc5)c4=O)CC3)cc2)n1C [Compound I-1101]	1000 to 10000 nM

Q: # lookup: USP7 (Homo sapiens) IC50, key = O=C(C1CCC(Oc2ccccn2)CC1)N1CCC(O)(Cn2cnc3c(cnn3-c3ccc(CO)cc3)c2=O)CC1 (stereo not shown) [Compound I-852]
Ans: < 200 nM

Q: # lookup: USP7 (Homo sapiens) IC50, key = O=C(c1ccc(F)cc1)N1CCC(O)(C(CO)n2cnc3c(cnn3-c3ccc(F)cc3)c2=O)CC1 (stereo not shown) [Compound I-720]
Ans: 1000 to 10000 nM

Q: # lookup: USP7 (Homo sapiens) IC50, key = Cc1cc(N[C@H]2CC[C@H](C(=O)N3CCC(O)(Cn4cnc5c(cnn5-c5ccc(F)cc5)c4=O)CC3)CC2)no1 [Compound I-806]
Ans: 200 to 1000 nM

Q: # lookup: USP7 (Homo sapiens) IC50, key = CC1(C(=O)N2CCC(O)(Cn3cnc4c(cnn4-c4ccc(-n5cccn5)cc4)c3=O)CC2)CC1 [Compound I-781]
Ans: 200 to 1000 nM

Q: # lookup: USP7 (Homo sapiens) IC50, key = O=C(C[C@@H](C(F)F)n1cccn1)N1CCC(O)(Cn2cnc3c(cnn3-c3ccc(N4CCCCC4)cc3)c2=O)CC1 [Compound I-822]
Ans: 200 to 1000 nM

Q: # lookup: USP7 (Homo sapiens) IC50, key = CN1CCN(c2ccc(-n3ncc4c(=O)n(CC5(O)CCN(C(=O)C[C@@H](C(F)F)n6cccn6)CC5)cnc43)cc2)CC1 (single isomer, unassigned) [Compound I-827]
Ans: 1000 to 10000 nM

###

# Subject Of Test: USP7 (Homo sapiens)
# Construct: USP7, construct USP7 (208-1102) 6*His, Viva Biotech; 6xHis (C); purchased Viva Biotech
# Procedure Details: USP7 Assay A (Ubitquin-Rhodamine 110 Assay)
# Assay type: biochemical
# Measurement Context: USP7 activity in USP7 assay A and B (table does not say which assay per compound); read-out: USP7_IC50
pIC50: −log10 of the molar value.
Measurement Type: pIC50

Q: # lookup: USP7 (Homo sapiens) pIC50, key = O=C(C1CC1)N1CCC(O)(Cn2cnc3c(cnn3-c3ccc(-c4cnn5c4COCC5)cc3)c2=O)CC1 [Compound I-1673]
Ans: 5.00 to 6.00

Q: # lookup: USP7 (Homo sapiens) pIC50, key = CC1(C(=O)N2CCC(O)(Cn3cnc4c(cnn4-c4cccc(N5CCC(C6COC6)CC5)c4)c3=O)CC2)CC1 [Compound I-1691]
Ans: 6.00 to 6.70

Q: # lookup: USP7 (Homo sapiens) pIC50, key = Cc1nccc(OC2CCC(C(=O)N3CCC(O)(Cn4cnc5c(cnn5-c5ccc(F)cc5)c4=O)CC3)CC2)n1 (stereo not shown) [Compound I-1016]
Ans: 6.00 to 6.70

Q: # lookup: USP7 (Homo sapiens) pIC50, key = O=C(C[C@@H](C(F)F)n1cc(Cl)cn1)N1CCC(O)(Cn2cnc3c(cnn3-c3ccc(F)cc3)c2=O)CC1 [Compound I-734]
Ans: < 5.00
